The measured values listed here are drawn from PubChem BioAssay AID488969.

system: Metabotropic glutamate receptor 8 (Rattus norvegicus) (UniProt P70579)
Sequence (P70579 whole entry, looked up): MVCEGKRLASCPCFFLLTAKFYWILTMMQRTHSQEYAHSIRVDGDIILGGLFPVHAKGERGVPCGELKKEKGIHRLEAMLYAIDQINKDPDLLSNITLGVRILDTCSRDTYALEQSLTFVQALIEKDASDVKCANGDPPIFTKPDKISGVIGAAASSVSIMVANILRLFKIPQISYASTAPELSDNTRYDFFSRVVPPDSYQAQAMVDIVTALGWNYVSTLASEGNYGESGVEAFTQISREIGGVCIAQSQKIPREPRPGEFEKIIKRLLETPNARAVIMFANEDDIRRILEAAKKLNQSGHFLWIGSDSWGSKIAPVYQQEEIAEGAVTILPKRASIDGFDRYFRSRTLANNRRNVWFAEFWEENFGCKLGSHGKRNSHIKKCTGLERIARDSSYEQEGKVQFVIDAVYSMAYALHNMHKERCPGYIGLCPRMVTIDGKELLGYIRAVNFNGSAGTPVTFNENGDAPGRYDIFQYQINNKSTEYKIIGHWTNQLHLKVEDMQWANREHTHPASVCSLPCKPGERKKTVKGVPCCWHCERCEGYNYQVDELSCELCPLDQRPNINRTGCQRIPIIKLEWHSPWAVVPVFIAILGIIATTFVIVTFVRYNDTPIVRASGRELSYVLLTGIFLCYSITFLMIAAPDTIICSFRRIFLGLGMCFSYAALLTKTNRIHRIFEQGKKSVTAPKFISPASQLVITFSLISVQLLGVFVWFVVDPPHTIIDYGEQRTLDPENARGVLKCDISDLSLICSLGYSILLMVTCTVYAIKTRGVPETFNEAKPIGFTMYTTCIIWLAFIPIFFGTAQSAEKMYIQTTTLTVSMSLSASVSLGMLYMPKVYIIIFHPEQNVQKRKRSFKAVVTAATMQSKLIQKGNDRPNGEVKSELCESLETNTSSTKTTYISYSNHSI
assay: mGluR8 Gi/Go-coupled signaling modulation – cell-based, rat, thallium flux, HTS, primary screen (AID 488969)
measurement-conditions: HEK293 rat mGluR8, GIRK thallium flux, FluoZin2; at 10 µM; stronger effect = higher value; submaximal glutamate (EC20) added with thallium
Whole data set: some 110,000 compounds, median “z-score” near -0.1, cut for the highest 2% near 2. The sample holds the highest values, similar compounds and a random draw of the others, so the mix is not that of the screen.
Documented z-score across a set of compounds

Before answering, review these 5 worked examples.
{"compound": "Cc1cccc(C)c1NC(=S)NC(=O)CCc1ccccc1", "readout-type": "z-score", "recorded-value": 1.73}
{"compound": "Cc1cccc(NC(=S)NC(=O)CCc2ccccc2)c1C", "readout-type": "z-score", "recorded-value": 0.747}
{"compound": "O=Cc1cn(-c2ccccc2)nc1-c1ccc2c(c1)OCCO2", "readout-type": "z-score", "recorded-value": -1.11}
{"compound": "Cc1cccc(NC(=S)NNC(=O)Cc2ccccc2)c1", "readout-type": "z-score", "recorded-value": 0.0541}
{"compound": "Cc1ccccc1NC(=S)NC(=O)CCc1ccccc1", "readout-type": "z-score", "recorded-value": 2.94}

query: Test system Metabotropic glutamate receptor 8 (Rattus norvegicus) (UniProt P70579); read-out z-score; what value for Cc1ccccc1NC(=S)NC(C)CCc1ccccc1 (stereo not drawn) ?
result: 0.22

query: Test system Metabotropic glutamate receptor 8 (Rattus norvegicus) (UniProt P70579); read-out z-score; what value for Cc1cc(C)cc(NC(=O)CN(C)S(=O)(=O)c2cnc[nH]2)c1 ?
result: -0.129

* * *

system: Metabotropic glutamate receptor 8 (Rattus norvegicus) (UniProt P70579)
assay: mGluR8 Gi/Go-coupled signaling modulation – cell-based, rat, thallium flux, HTS, primary screen (AID 488969)
measurement-conditions: HEK293 rat mGluR8, GIRK thallium flux, FluoZin2; at 10 µM; stronger effect = higher value; submaximal glutamate (EC20) added with thallium
Whole data set: some 110,000 compounds, median “z-score” near -0.1, cut for the highest 2% near 2. The sample as a whole holds a higher share of the highest values than the screen did.
Binary classification by z-score, with 0.9 as an inclusive lower bound for TRUE; all other cases are FALSE.

Some solved cases for reference:
{"molecule": "CCOc1ccc(-c2nnn(CC(=O)c3cc(OC)ccc3OC)n2)cc1", "discrete-label": "TRUE"}
{"molecule": "CC1(C)Cc2c(sc3[nH]c(=S)n(Cc4ccccc4)c(=O)c23)CO1", "discrete-label": "TRUE"}
{"molecule": "CCOc1ccc(OCC)c(NC(=O)c2[nH]c(C)c(C(C)=O)c2C)c1", "discrete-label": "FALSE"}
{"molecule": "Cc1nn(Cc2ccc(Cl)cc2Cl)c(Cl)c1/C=N/NC(=O)CNc1cccc(C(F)(F)F)c1", "discrete-label": "FALSE"}
{"molecule": "CC1(C)Cc2c(sc3c2c(=N)n(Cc2ccco2)c(=O)n3Cc2ccccc2)CO1", "discrete-label": "FALSE"}

query: Is z-score for CCOC(=O)NC1(C(F)(F)F)NC(=O)N(C2CCCCC2)C1=O (stereo not given) at or above 0.9?
result: TRUE

query: Is z-score for CCC1(C)Cc2c(sc3c2c(=O)n(-c2ccccc2)c(=O)n3C)CO1 (stereo not given) at or above 0.9?
result: FALSE

query: Is z-score for CC(=O)NC1(C(F)(F)F)NC(=O)N(C2CCCCC2)C1=O (stereo not given) at or above 0.9?
result: FALSE

query: Is z-score for COc1ccc(CCC(=O)NCc2cn3ccsc3n2)cc1 at or above 0.9?
result: FALSE

query: Is z-score for CC(C)C1Cc2c(sc3c2c(=O)n(Cc2ccccc2)c2nncn32)CO1 (stereo not given) at or above 0.9?
result: FALSE

* * *

system: Metabotropic glutamate receptor 8 (Rattus norvegicus) (UniProt P70579)
assay: mGluR8 Gi/Go-coupled signaling modulation – cell-based, rat, thallium flux, HTS, primary screen (AID 488969)
measurement-conditions: HEK293 rat mGluR8, GIRK thallium flux, FluoZin2; at 10 µM; stronger effect = higher value; submaximal glutamate (EC20) added with thallium
Whole data set: some 110,000 compounds, median “z-score” near -0.1, cut for the highest 2% near 2. For the sample, the highest values were picked, then their nearest neighbours and some compounds at random.
Binary classification by z-score, with -0.03 as an inclusive lower bound for rule met; all other cases are rule not met.

Some solved cases for reference:
{"compound": "Cc1cc(C)c2nc(NC(=O)c3ccc(OCC4CCCO4)cc3)sc2c1 (stereo unspecified)", "discrete-label": "rule not met"}
{"compound": "CCc1ccc2nc(NC(=O)CSCc3c(C)noc3C)sc2c1", "discrete-label": "rule not met"}
{"compound": "Cc1cc(C)c2nc(NC(=O)C3CCCO3)sc2c1 (stereo unspecified)", "discrete-label": "rule met"}
{"compound": "Cc1cc(C)c2nc(NC(=O)c3cc(C)on3)sc2c1", "discrete-label": "rule met"}
{"compound": "CCc1ccc2nc(NC(=O)c3cc(C)on3)sc2c1", "discrete-label": "rule met"}

query: Is z-score for COc1ccccc1C(=O)NCC1CCN(c2ccc(S(=O)(=O)N3CCOCC3)cc2)CC1 at or above -0.03?
result: rule not met

* * *

system: Metabotropic glutamate receptor 8 (Rattus norvegicus) (UniProt P70579)
assay: mGluR8 Gi/Go-coupled signaling modulation – cell-based, rat, thallium flux, HTS, primary screen (AID 488969)
measurement-conditions: HEK293 rat mGluR8, GIRK thallium flux, FluoZin2; at 10 µM; stronger effect = higher value; submaximal glutamate (EC20) added with thallium
In all, about 110,000 compounds were measured (“z-score”: median about -0.1, highest 2% from about 2 on). The sample as a whole holds a higher share of the highest values than the screen did.
Binary classification by z-score, with -0.002 as an inclusive lower bound for YES; all other cases are NO.

Some solved cases for reference:
{"compound": "C=CCc1cccc2cc(C(=O)N(C)C)c(=O)oc12", "discrete-label": "YES"}
{"compound": "O=C(NNS(=O)(=O)c1ccccc1)c1ccncc1", "discrete-label": "NO"}
{"compound": "Cc1nc(/N=C(\\N)NC(=O)c2ccccc2)nc2ccccc12", "discrete-label": "YES"}
{"compound": "Cc1nc(/N=C(\\N)NC(=O)N2c3ccccc3Sc3ccccc32)nc2ccccc12", "discrete-label": "NO"}
{"compound": "Cc1cccnc1NC(=S)NC(=O)c1cncc(Br)c1", "discrete-label": "NO"}

query: Is z-score for COc1ccc(S(=O)(=O)N(CCc2ccccc2)CC(=O)N/N=C/c2ccc3c(c2)OCO3)cc1 at or above -0.002?
result: NO

query: Is z-score for COc1ccccc1/C=C/C(=O)NC(=S)N(C)C1CCCCC1 at or above -0.002?
result: YES

query: Is z-score for COc1ccccc1/C=C/C(=O)NC(=S)NC(C)C at or above -0.002?
result: YES

query: Is z-score for N/C(=N\c1nc2ccccc2o1)NC(=O)c1ccccc1 at or above -0.002?
result: NO

query: Is z-score for COc1ccccc1/C=C/C(=O)NC(=S)Nc1ccc(S(=O)(=O)N(C)c2ccccc2)cc1 at or above -0.002?
result: YES

query: Is z-score for O=C(NC(=S)Nc1ccccn1)c1cncc(Br)c1 at or above -0.002?
result: YES

query: Is z-score for O=C(NC(=S)Nc1ncc(Br)cc1Br)c1cncc(Br)c1 at or above -0.002?
result: YES

query: Is z-score for COc1cc(C(=O)Nc2ccc(S(=O)(=O)NC(C)(C)C)cc2)cc(OC)c1OC at or above -0.002?
result: NO

* * *

system: Metabotropic glutamate receptor 8 (Rattus norvegicus) (UniProt P70579)
assay: mGluR8 Gi/Go-coupled signaling modulation – cell-based, rat, thallium flux, HTS, primary screen (AID 488969)
measurement-conditions: HEK293 rat mGluR8, GIRK (G protein-gated inwardly rectifying potassium channel) thallium flux, FluoZin2; at 10 µM; stronger effect = higher value; submaximal glutamate (EC20) added with thallium
Whole data set: some 110,000 compounds, median “z-score” near -0.1, cut for the highest 2% near 2. Many of the other results were omitted from the sample, so the highest values are more common in it than they were.
Binary classification by z-score, with 0.02 as an inclusive lower bound for Criterion met; all other cases are Criterion not met.

query: Is z-score for C=CCN1C(=Nc2cccnc2)SCC1(O)c1ccc(C)cc1 (configuration not stated) at or above 0.02?
result: Criterion met

query: Is z-score for CC1=NN(C(=O)Cc2ccc(C)cc2)C(O)(c2cccnc2)C1 (configuration not stated) at or above 0.02?
result: Criterion met

query: Is z-score for Cc1c(C(=O)O)[nH]c2c1C(=O)CC(c1ccccc1)C2 (configuration not stated) at or above 0.02?
result: Criterion not met

query: Is z-score for COC(=O)Cc1ccc(NC(=O)c2ccc(C(C)(C)C)cc2)cc1 at or above 0.02?
result: Criterion not met

query: Is z-score for CC(C)Oc1ccc(/C(O)=C2/C(=O)C(=O)N(CCCn3ccnc3)C2c2cccnc2)cc1 (configuration not stated) at or above 0.02?
result: Criterion not met

query: Is z-score for COc1ccc(-c2noc(-c3cc(C)cc(C)c3)n2)cc1OC at or above 0.02?
result: Criterion met

query: Is z-score for COc1ccc(-c2noc(-c3ccccc3Cl)n2)cc1OC at or above 0.02?
result: Criterion not met
